target: T1, SARS-CoV-2 Spike Glycoprotein S1 (subunit 1) (SARS-CoV-2, UniProt P0DTC2 16-685); test: column Inhibitor IC50 (assay not explained)
T1 construct: also called S1 Monomer; SARS-CoV-2 S1
measured_quantity: pIC50
pIC50 is a log-scale quantity: -log10 of the concentration expressed in molar.

1-10 (antibody, V domains shown) VH: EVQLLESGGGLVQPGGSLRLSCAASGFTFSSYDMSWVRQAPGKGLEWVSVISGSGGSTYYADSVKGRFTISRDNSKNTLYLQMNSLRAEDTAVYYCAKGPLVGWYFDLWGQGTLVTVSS VL: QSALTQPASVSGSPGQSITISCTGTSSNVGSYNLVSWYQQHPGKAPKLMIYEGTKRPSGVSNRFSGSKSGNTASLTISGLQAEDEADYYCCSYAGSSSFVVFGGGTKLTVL	7.75

*Q* Which pIC50 value belongs to 1-31 (antibody, V domains shown) VH: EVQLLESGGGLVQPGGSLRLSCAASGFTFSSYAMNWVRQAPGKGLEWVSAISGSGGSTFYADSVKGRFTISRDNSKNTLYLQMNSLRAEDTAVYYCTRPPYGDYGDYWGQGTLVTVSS VL: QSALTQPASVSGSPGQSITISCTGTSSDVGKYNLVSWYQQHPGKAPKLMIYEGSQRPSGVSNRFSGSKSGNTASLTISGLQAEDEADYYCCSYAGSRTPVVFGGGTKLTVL ?
*A* 8.04

These data points were gathered from patent US20210395344A1.
